From: patent US20210277118A1

study_system: T1, Recombinant CD3epsilon/delta Fc fusion protein (Sino Biological) (human, UniProt P07766 23-126; P04234 22-105)
T1 construct: Bought reagent; also called recombinant CD3 fusion protein; human CD3 antigen; not shown: Fc of the bought fusion protein; not described
T1 sequence (P07766 23-126, stated change not applied, chain 1 of 2): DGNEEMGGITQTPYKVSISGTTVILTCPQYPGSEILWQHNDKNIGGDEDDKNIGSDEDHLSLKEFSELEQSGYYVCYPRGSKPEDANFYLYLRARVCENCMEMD
T1 sequence (P04234 22-105, stated change not applied, chain 2 of 2): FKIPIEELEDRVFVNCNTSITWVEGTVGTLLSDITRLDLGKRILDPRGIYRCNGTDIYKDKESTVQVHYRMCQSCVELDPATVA
test_description: SPR (ProteOn XPR36), CD3epsilon/delta Fc fusion captured on anti-Fc chip, variant injected for 240 s; kinetic constants printed above the sensorgrams
Known Kd of a selection of binders
metric: Kd

binder: variant 21829, monovalent anti-CD3 scFv-heterodimeric Fc (VL hC3E-1_1L1d, VH hC3E-1(N53R)) (Fc fusion, scFv order VH-(GGGGS)3-VL on Fc chain A; chain B is Fc only; also called v21829; not shown: Fc-only chain B is also left out) scFv: EVQLVESGGGLVQPGGSLRLSCAASGVTFNYYGMSWIRQAPGKGLEWVASITRSGGRIYYPDSVKGRFTISRENTQKTLYLQMNSLRAEDTAVYYCTLDGRDGWVAYWGQGTLVTVSSGGGGSGGGGSGGGGSQVVLTQPPSASGTPGQRVTISCKRNTGNIGSNYVNWYQQLPGTAPKLLIYRDDKRPDGVPDRFSGSKSGTSASLAISGLQSEDEADYYCQSYSSGFIFGGGTKLTVL
metric: Kd
result: 3.12 nM
--
binder: variant 18346, monovalent anti-CD3 scFv-heterodimeric Fc (VL hC3E-1 wildtype, VH hC3E-1 wildtype) (Fc fusion, scFv order VH-(GGGGS)3-VL on Fc chain A; chain B is Fc only; also called v18346; parental construct v18346; not shown: Fc-only chain B is also left out) scFv: EVQLVESGGGLVQPGGSLRLSCAASGVTFNYYGMSWIRQAPGKGLEWVASITNSGGRIYYPDSVKGRFTISRENTQKTLYLQMNSLRAEDTAVYYCTLDGRDGWVAYWGQGTLVTVSSGGGGSGGGGSGGGGSNFMLTQPHSVSESPGKTVTISCKRNTGNIGSNYVNWYQQHEGSSPTTIIYRDDKRPDGVSDRFSGSIDRSSKSASLTISNLKTEDEADYFCQSYSSGFIFGGGTKLTVL
metric: Kd
result: 0.117 nM
--
binder: variant 19362, monovalent anti-CD3 scFv-heterodimeric Fc (VL hC3E-1_6L3b (D52N), VH hC3E-1) (Fc fusion, not shown: a dimerising Fc or GST; small tags and cut ends, scFv order VH-(GGGGS)3-VL on Fc chain A; chain B is Fc only; also called v19362) scFv: EVQLVESGGGLVQPGGSLRLSCAASGVTFNYYGMSWIRQAPGKGLEWVASITNSGGRIYYPDSVKGRFTISRENTQKTLYLQMNSLRAEDTAVYYCTLDGRDGWVAYWGQGTLVTVSSGGGGSGGGGSGGGGSNFMLTQPHSVSESPGKTVTISCKRNTGNIGSNYVNWYQQLPGTAPKTIIYRNDKRPDGVPDRFSGSIDSSSNSASLAISGLQSEDEADYYCQSYSSGFIFGGGTKLTVL
metric: Kd
result: 3.03 nM
--
binder: variant 19363, monovalent anti-CD3 scFv-heterodimeric Fc (VL hC3E-1_6L3a (D52N), VH hC3E-1) (Fc fusion, not shown: a dimerising Fc or GST; small tags and cut ends, scFv order VH-(GGGGS)3-VL on Fc chain A; chain B is Fc only; also called v19363) scFv: EVQLVESGGGLVQPGGSLRLSCAASGVTFNYYGMSWIRQAPGKGLEWVASITNSGGRIYYPDSVKGRFTISRENTQKTLYLQMNSLRAEDTAVYYCTLDGRDGWVAYWGQGTLVTVSSGGGGSGGGGSGGGGSQFVLTQPPSASGTPGQRVTISCKRNTGNIGSNYVNWYQQLPGTAPKTIIYRNDKRPDGVPDRFSGSIDSSSNSASLAISGLQSEDEADYYCQSYSSGFIFGGGTKLTVL
metric: Kd
result: 6.62 nM
--
binder: variant 21831, monovalent anti-CD3 scFv-heterodimeric Fc (VL hC3E-1_1L1d, VH hC3E-1(N53S)) (Fc fusion, scFv order VH-(GGGGS)3-VL on Fc chain A; chain B is Fc only; also called v21831; not shown: Fc-only chain B is also left out) scFv: EVQLVESGGGLVQPGGSLRLSCAASGVTFNYYGMSWIRQAPGKGLEWVASITSSGGRIYYPDSVKGRFTISRENTQKTLYLQMNSLRAEDTAVYYCTLDGRDGWVAYWGQGTLVTVSSGGGGSGGGGSGGGGSQVVLTQPPSASGTPGQRVTISCKRNTGNIGSNYVNWYQQLPGTAPKLLIYRDDKRPDGVPDRFSGSKSGTSASLAISGLQSEDEADYYCQSYSSGFIFGGGTKLTVL
metric: Kd
result: 23 nM
